B1: glmS ribozyme (parent)
chain: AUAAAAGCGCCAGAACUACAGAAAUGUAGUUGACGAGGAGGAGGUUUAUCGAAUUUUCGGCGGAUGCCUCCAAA

Variants of: B1
Experiment: self-cleavage kobs at 160 uM GlcN6P; higher = faster cleavage; RNA array
Settings: with glucosamine-6-phosphate
This sample holds only a part of the variants without activity.
measurement_name: self-cleavage kobs at 160 uM GlcN6P

mutation_list	self-cleavage kobs at 160 uM GlcN6P
A52U C58U	< 1e-05 s⁻¹

Report self-cleavage kobs at 160 uM GlcN6P, nothing else, for this variant: A6G C16G G38A
< 1e-05 s⁻¹

Report self-cleavage kobs at 160 uM GlcN6P, nothing else, for this variant: G29U A39C
8.26e-05 s⁻¹

Report self-cleavage kobs at 160 uM GlcN6P, nothing else, for this variant: G13C C68U C71U
< 1e-05 s⁻¹

src = the supplement of paper PMC7125110
